Collected growth values appear next to each entry.
test system: BT-549 breast; experiment: NCI-60 one-dose screen, 48 h (100 = growth as untreated, 0 = no growth, -100 = all killed); details: 10 µM unless noted
About 83,000 compounds went through this panel and 20% of them were active in at least one assay; those are over-represented in the sample as a whole. Active and inactive are the calls of the source. The calls were made as follows: active = growth percent below 10; inactive = the rest.

Reported growth for CCOC(=O)Cn1c(O)c(N=Nc2ccc(S(N)(=O)=O)cc2)c2cc(Br)ccc21 was 119% (inactive)

The reported growth of the molecule Cc1nn(-c2ccccc2)c(Oc2ccccn2)c1-c1nc2ccccc2s1 was 95.4% (inactive)

# growth of Cc1nc(N2CCOCC2)sc1S(N)(=O)=O = 98.1% (inactive)

Value of growth reported for the molecule C1=CN2CC(c3ccccc3)=NNC2c2ccccc21 (centres undefined) is 61.7% (inactive)

====

test system: HOP-62 NSCLC; assay: NCI-60 one-dose screen, 48 h; conditions: 10 µM unless noted
Compounds without any hit were thinned out: in the full panel of roughly 83,000, 20% have a hit. Calls of active or inactive are those of the source. Rule for the calls: active = growth percent below 10; inactive = the rest.
Pick one and only one: class 1 for active, class 0 for inactive

> print(dat)
                                   molecule  group.label
1  Cn1ccnc1C(=O)C(=O)Nc1ccc(CC(=O)Nc2ccccc2)cc1      class 0
2  Cc1ccc(Sc2oc(-c3ccc(C)cc3)nc2[P+](c2ccccc2)(c2ccccc2)c2ccccc2)cc1      class 1
3  O=C1c2cccc(NCCN=Cc3cc(O)ccc3O)c2C(=O)c2c(NCCN=Cc3cc(O)ccc3O)cccc21      class 1
4  COc1ccc(-c2nnc(-c3ccc4c(c3)nc(-c3ccncc3)n4C3CCCCC3)o2)cc1      class 0
5  COC(=O)[C@]1(C)CCC[C@]2(C)[C@H]3C[C@H]4C(C(C)C)=C[C@]3(CC[C@H]21)[C@H]1[C@@H]4[C@@H](OCCC#N)CC[C@@H]1OCCC#N      class 0

Which outcome did this test record for the molecule CCCCC(=O)Nc1ncc(Cc2ccc(Cl)cc2)s1 ? class 0

Kindly provide the recorded test outcome for the following molecule: N#Cc1c(NC(=O)c2ccccc2)sc2c1CCC(=O)C2 class 0

I'd appreciate the recorded outcome for COCCn1c(-c2csc(-c3cn(C)c4ccc(OC)cc34)n2)cc2cccnc21 from this test. class 0

Record request — test call for O=c1oc2ccccc2cc1C1=NN=C(SCc2ccccc2)SC1 class 0

// outcome(item) with item = CN1CCN(c2ccc(NC(=O)c3nc4ccc5[nH]ncc5c4c4c3CCCC4)cc2C(F)(F)F)CC1 class 0

What outcome does the record of this test show for CCCC(O)Cn1ncc(C(=O)OCC)c1NC(=O)NCc1ccccc1F (centres undefined) ? class 0

Assay outcome for CC(C)CCNC(=O)Cn1cccc(NC(=O)OCc2ccccc2)c1=O : what was it? class 0

Which outcome did this test record for the molecule CCN(CC)CCSc1nc(-c2ccccc2)c(C#N)c(=O)[nH]1 ? class 0

I would be grateful if you could indicate the recorded call for COC(=O)/C(CCC=C(C)C)=C1\[C@@H](OC(C)=O)C[C@@]2(C)[C@H]1C[C@@H](O)[C@H]1[C@@]3(C)CC[C@H](NCCN)[C@@H](C)[C@@H]3CC[C@@]12C . class 0

====

Test system: NCI-H226 lung
Assay: NCI-60 one-dose screen, 48 h
Settings: 10 µM unless noted
Method: Growth inhibition of the NCI-H226 human Non-Small Cell Lung tumor cell line is measured as a screen for anti-cancer activity. Cells are grown in 96 well plates and exposed to the test compound for 48 hours. Compounds are tested at a single concentration, which is 10^-5 M for most compounds. The reported endpoint is percent growth (GI% or GIPRCNT), where numbers from 0 - 100% represent growth inhibition, and numbers from -100% - 0 represent cell death. […]
The panel holds about 83,000 compounds, 20% with a hit somewhere; the sample as a whole holds those more often. Active and inactive are the calls of the source. The calls were made as follows: active = growth percent below 10; inactive = the rest.
Reply using exactly one outcome from yes = active, no = inactive

> print(dat)
                                   molecule  group.label
1     N#Cc1c(-c2cccs2)cc(-c2cccnc2)[nH]c1=O           no
2  N#CC1CCc2c(c(-c3cn[nH]c3C(F)(F)F)nc3c(F)cc4[nH]ncc4c23)C1 (configuration not stated)           no
3  COC(=O)c1n[nH]c2ccc3nc(-c4cn[nH]c4C(F)(F)F)c4c(c3c12)CCCC4           no
4  O=C(/C=C(/C=C/c1cccc2[nH]ccc12)OB(F)F)/C=C/c1cccc2[nH]ccc12          yes
5  C#CCOc1cccc(Nc2ncnc3c(NC(=O)C=C)cccc23)c1           no

Consider the record given below.
// outcome(item) with item = O=C1N(Cc2ccccc2Cl)c2ccccc2C12NN=C(c1cccc(Cl)c1)S2 (configuration not stated) yes
